STUDY_SYSTEM: SERCA2a (cardiac SR vesicles) (Sus scrofa)
Construct: Cardiac SR vesicles were isolated from fresh porcine left ventricular tissue; from tissue; host or cells: porcine left ventricular tissue, cardiac SR vesicles
TEST_NAME: NADH-coupled Ca-ATPase activity assay, cardiac SR (CRC at pCa 5.4)
Assay type: biochemical, porcine
EXPERIMENTAL_PARAMETERS: maximal effect of CRC, pCa 5.4, mean ± SD, n = 3
OBSERVED_PROPERTY: Cardiac SR ATPase Activity Percent Increase (%)

Use these answered entries as a reference point.
{"COMPOUND": "C=C(C)COc1cccc(C(=O)NCCn2cccn2)c1", "EXPERIMENTAL_RESULT": 46}
{"COMPOUND": "CCCCN(Cc1ccsc1)C(=O)c1occc1C", "EXPERIMENTAL_RESULT": 63}
{"COMPOUND": "CCCSCC(=O)N(Cc1ccc(C)s1)C1CCCC1", "EXPERIMENTAL_RESULT": 48}

1: Cc1ccsc1CN(C)C(=O)CC(c1ccccc1)c1ccc2c(c1)OCO2 (centres unmarked)
2: CCC(C)N(Cc1ccc(C)cc1)Cc1nccs1 (centres unmarked)
q: Response body: label of entry with the larger Cardiac SR ATPase Activity Percent Increase; valid values 1 , 2 . Answer = label.
a: 1

* * *

STUDY_SYSTEM: SERCA2a (cardiac SR vesicles) (Sus scrofa, UniProt P11607)
Construct: Cardiac SR vesicles were isolated from fresh porcine left ventricular tissue; from tissue; host or cells: porcine left ventricular tissue, cardiac SR vesicles
Sequence (P11607 1-997 isoform P11607-2): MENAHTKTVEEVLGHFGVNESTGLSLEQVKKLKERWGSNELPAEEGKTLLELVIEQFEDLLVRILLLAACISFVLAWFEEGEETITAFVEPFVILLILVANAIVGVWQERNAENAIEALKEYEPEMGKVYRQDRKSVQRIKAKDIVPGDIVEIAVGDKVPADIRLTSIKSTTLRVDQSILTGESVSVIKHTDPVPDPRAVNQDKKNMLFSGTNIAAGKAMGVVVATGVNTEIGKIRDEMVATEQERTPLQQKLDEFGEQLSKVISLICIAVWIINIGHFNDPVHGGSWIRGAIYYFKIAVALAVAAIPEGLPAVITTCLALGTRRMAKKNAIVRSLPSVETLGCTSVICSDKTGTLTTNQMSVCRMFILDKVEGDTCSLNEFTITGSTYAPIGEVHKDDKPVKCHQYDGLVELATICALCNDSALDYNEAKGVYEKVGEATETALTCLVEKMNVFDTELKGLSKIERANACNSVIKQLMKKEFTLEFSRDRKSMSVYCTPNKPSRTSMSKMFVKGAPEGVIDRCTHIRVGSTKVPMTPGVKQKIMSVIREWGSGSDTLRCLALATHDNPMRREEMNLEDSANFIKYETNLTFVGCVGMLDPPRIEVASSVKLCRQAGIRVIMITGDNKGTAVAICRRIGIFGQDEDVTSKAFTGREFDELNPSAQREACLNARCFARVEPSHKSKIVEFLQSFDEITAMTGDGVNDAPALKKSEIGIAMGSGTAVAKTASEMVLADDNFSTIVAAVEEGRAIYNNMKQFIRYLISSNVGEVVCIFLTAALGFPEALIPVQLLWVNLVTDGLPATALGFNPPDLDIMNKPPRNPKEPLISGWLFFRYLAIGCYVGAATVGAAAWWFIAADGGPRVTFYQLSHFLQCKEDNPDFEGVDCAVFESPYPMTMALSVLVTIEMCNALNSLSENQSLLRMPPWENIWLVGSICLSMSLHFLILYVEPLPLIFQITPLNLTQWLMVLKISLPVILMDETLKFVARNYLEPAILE
TEST_NAME: Oxalate-supported Ca2+-uptake assay, cardiac SR (CRC at pCa 5.4)
Assay type: biochemical, porcine
EXPERIMENTAL_PARAMETERS: maximal effect of CRC, pCa 5.4, mean ± SD, n = 3; dash = no observable effect
OBSERVED_PROPERTY: Cardiac SR Ca^2+ Uptake Activity Percent Increase (%)

Use these answered entries as a reference point.
{"COMPOUND": "C=CCN(Cc1ccccc1OCC)C(=O)C1CCC1 [Compound 5]", "READING_UNIT": "%", "EXPERIMENTAL_RESULT": 16}
{"COMPOUND": "Fc1ccc(N2CCCN(Cc3nc(C(c4ccccc4)c4ccccc4)no3)CC2)cc1 [Compound 12]", "READING_UNIT": "%", "EXPERIMENTAL_RESULT": "−10"}
{"COMPOUND": "COc1cccc(-c2nn(-c3ccccc3)cc2CN(Cc2c(C)nn(C)c2C)C2CC2)c1 [Compound 18]", "READING_UNIT": "%", "EXPERIMENTAL_RESULT": 12}

a: COc1ncc(CN(Cc2sccc2C)CC(C)C)cn1 [Compound 2]
b: C=C(C)COc1cccc(C(=O)NCCn2cccn2)c1 [Compound 15]
c: CCOC(=O)C1(CCc2ccccc2)CCN(C(=O)c2occc2C)CC1 [Compound 9]
q: Kindly order the items shown according to Cardiac SR Ca^2+ Uptake Activity Percent Increase, from the highest value down. When ranking, write the labels in the order the request describes.
a: c, a, b
(c: 33%, a: 12%, b: 6%)

* * *

STUDY_SYSTEM: SERCA2a (cardiac SR vesicles) (Sus scrofa, UniProt P11607)
Construct: Cardiac SR vesicles were isolated from fresh porcine left ventricular tissue; from tissue; host or cells: porcine left ventricular tissue, cardiac SR vesicles
TEST_NAME: Oxalate-supported Ca2+-uptake assay, cardiac SR (CRC at pCa 5.4)
Type: biochemical, porcine
EXPERIMENTAL_PARAMETERS: pCa 5.4, mean ± SD, n = 3; dash = no observable effect; read-out: Cardiac SR Ca^2+ Uptake Activity EC50
pEC50: −log10 of the molar value.
OBSERVED_PROPERTY: pEC50

Use these answered entries as a reference point.
{"COMPOUND": "CCCCN(Cc1ccsc1)C(=O)c1occc1C", "EXPERIMENTAL_RESULT": 5.42}
{"COMPOUND": "CCOC(=O)C1(CCCc2ccccc2)CCN(C(=O)CC2=CCCCC2)CC1", "EXPERIMENTAL_RESULT": 5.89}
{"COMPOUND": "Cc1ccsc1CN(C)C(=O)CC(c1ccccc1)c1ccc2c(c1)OCO2 (stereo not drawn)", "EXPERIMENTAL_RESULT": 5.92}
{"COMPOUND": "C=CCN(Cc1ccccc1OCC)C(=O)C1CCC1", "EXPERIMENTAL_RESULT": 6.00}
{"COMPOUND": "COc1cccc(-c2nn(-c3ccccc3)cc2CN(Cc2c(C)nn(C)c2C)C2CC2)c1", "EXPERIMENTAL_RESULT": 6.05}

P: Fc1ccc(N2CCCN(Cc3nc(C(c4ccccc4)c4ccccc4)no3)CC2)cc1
Q: CCOC(=O)C1(Cc2cccc(C(F)(F)F)c2)CCN(C(=O)c2sccc2C)CC1
R: CCC(C)N(Cc1ccc(C)cc1)Cc1nccs1 (stereo not drawn)
S: COc1ccc(CCNC(=O)c2oc3c(Cl)cc(C)cc3c2C)cc1
T: C=C(C)COc1cccc(C(=O)NCCn2cccn2)c1
q: Let's sort these by pEC50, smallest first. Go ahead? When ranking, write the labels in the order the request describes.
a: R, S, T, P, Q

1: CN(Cc1ccccc1)c1ncccc1CNc1ncccc1Cl
2: CCCSCC(=O)N(Cc1ccc(C)s1)C1CCCC1
q: Please indicate which has the smaller reported pEC50: 1 , or 2 . Answer = label.
a: 2

* * *

STUDY_SYSTEM: SERCA2a (cardiac SR vesicles) (Sus scrofa)
Construct: Cardiac SR vesicles were isolated from fresh porcine left ventricular tissue; from tissue; host or cells: porcine left ventricular tissue, cardiac SR vesicles
TEST_NAME: NADH-coupled Ca-ATPase activity assay, cardiac SR (CRC at pCa 5.4)
Assay type: biochemical, porcine
EXPERIMENTAL_PARAMETERS: maximal effect of CRC, pCa 5.4, mean ± SD, n = 3
OBSERVED_PROPERTY: Cardiac SR ATPase Activity Percent Increase (%)

Use these answered entries as a reference point.
{"SUBSTANCE_SMILES": "COc1ccc(CCNC(=O)c2oc3c(Cl)cc(C)cc3c2C)cc1", "EXPERIMENTAL_RESULT": 26}
{"SUBSTANCE_SMILES": "CCc1cccc(NC(=O)CCC(=O)NCc2snnc2C)c1", "EXPERIMENTAL_RESULT": 62}

1: Fc1ccc(N2CCCN(Cc3nc(C(c4ccccc4)c4ccccc4)no3)CC2)cc1
2: CCOC(=O)C1(CCCc2ccccc2)CCN(C(=O)CC2=CCCCC2)CC1
q: Please indicate which has the smaller reported Cardiac SR ATPase Activity Percent Increase: 1 , or 2 . Answer = label.
a: 1

* * *

STUDY_SYSTEM: SERCA1a (rabbit light skeletal SR vesicles) (Oryctolagus cuniculus)
Construct: rabbit muscles were freshly harvested from the back and hind leg of New Zealand White rabbits and purified using a sucrose gradient; from tissue; host or cells: rabbit (New Zealand White) back and hind leg skeletal muscle, light SR vesicles
Sequence (P04191 1-994 isoform P04191-2): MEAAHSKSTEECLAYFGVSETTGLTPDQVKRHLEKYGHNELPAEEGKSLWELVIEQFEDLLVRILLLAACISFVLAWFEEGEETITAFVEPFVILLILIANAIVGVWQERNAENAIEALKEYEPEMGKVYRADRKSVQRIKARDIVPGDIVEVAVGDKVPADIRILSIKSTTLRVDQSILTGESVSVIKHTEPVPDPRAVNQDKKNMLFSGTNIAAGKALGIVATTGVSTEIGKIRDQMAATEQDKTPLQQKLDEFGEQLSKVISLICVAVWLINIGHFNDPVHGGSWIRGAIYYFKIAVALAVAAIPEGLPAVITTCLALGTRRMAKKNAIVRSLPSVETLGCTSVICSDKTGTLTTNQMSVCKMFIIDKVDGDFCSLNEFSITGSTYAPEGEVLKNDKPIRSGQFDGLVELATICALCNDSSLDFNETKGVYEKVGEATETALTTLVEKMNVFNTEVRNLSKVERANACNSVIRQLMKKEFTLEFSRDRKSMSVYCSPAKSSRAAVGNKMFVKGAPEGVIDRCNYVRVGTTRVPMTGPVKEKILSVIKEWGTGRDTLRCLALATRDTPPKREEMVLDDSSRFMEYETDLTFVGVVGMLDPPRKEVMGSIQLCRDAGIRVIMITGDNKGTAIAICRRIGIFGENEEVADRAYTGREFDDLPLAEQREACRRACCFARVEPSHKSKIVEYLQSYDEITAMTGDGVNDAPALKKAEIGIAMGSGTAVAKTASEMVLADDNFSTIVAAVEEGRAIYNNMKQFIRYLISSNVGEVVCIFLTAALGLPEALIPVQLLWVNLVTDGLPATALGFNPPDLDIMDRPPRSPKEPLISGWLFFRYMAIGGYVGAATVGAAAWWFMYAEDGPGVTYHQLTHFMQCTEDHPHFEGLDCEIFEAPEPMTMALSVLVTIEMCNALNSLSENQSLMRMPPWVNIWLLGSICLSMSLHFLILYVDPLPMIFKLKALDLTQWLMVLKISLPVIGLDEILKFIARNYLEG
TEST_NAME: NADH-coupled Ca-ATPase activity assay, skeletal SR (CRC at pCa 5.4)
Type: biochemical
EXPERIMENTAL_PARAMETERS: pCa 5.4, mean ± SD, n = 3
OBSERVED_PROPERTY: EC50 (µM)

Use these answered entries as a reference point.
{"COMPOUND": "OCc1ccccc1-c1ccc(-c2nc(CCc3ccccc3)no2)cn1", "OBSERVED_PROPERTY": "EC50", "EXPERIMENTAL_RESULT": 7.3}
{"COMPOUND": "CCOC(=O)C1(CCc2ccccc2)CCN(C(=O)c2occc2C)CC1", "OBSERVED_PROPERTY": "EC50", "EXPERIMENTAL_RESULT": 13.3}
{"COMPOUND": "CCOC(=O)C1(CCCc2ccccc2)CCN(C(=O)CC2=CCCCC2)CC1", "OBSERVED_PROPERTY": "EC50", "EXPERIMENTAL_RESULT": 3.6}
{"COMPOUND": "COc1ccc(CCNC(=O)c2oc3c(Cl)cc(C)cc3c2C)cc1", "OBSERVED_PROPERTY": "EC50", "EXPERIMENTAL_RESULT": 3}

a: CCc1cccc(NC(=O)CCC(=O)NCc2snnc2C)c1
b: CCOC(=O)C1(Cc2cccc(C(F)(F)F)c2)CCN(C(=O)c2sccc2C)CC1
c: C=C(C)COc1cccc(C(=O)NCCn2cccn2)c1
q: Let's sort these by EC50, smallest first. Go ahead? When ranking, write the labels in the order the request describes.
a: b, a, c

I: COc1cccc(-c2nn(-c3ccccc3)cc2CN(Cc2c(C)nn(C)c2C)C2CC2)c1
II: CN(Cc1ccccc1)c1ncccc1CNc1ncccc1Cl
q: Response body: label of entry with the larger EC50; valid values I , II . Answer = label.
a: I

a: COc1ncc(CN(Cc2sccc2C)CC(C)C)cn1
b: CCCCN(Cc1ccsc1)C(=O)c1occc1C
c: CCCSCC(=O)N(Cc1ccc(C)s1)C1CCCC1
d: CCC(C)N(Cc1ccc(C)cc1)Cc1nccs1 (stereo not shown)
q: Kindly order the items shown according to EC50, from the highest value down. When ranking, write the labels in the order the request describes.
a: d, b, c, a

a: CCCN(Cc1ccccc1OC)C(=O)c1cc(C)c(C)s1
b: Fc1ccc(N2CCCN(Cc3nc(C(c4ccccc4)c4ccccc4)no3)CC2)cc1
q: Please indicate which has the smaller reported EC50: a , or b . Answer = label.
a: b
